These compounds were tested on EPHA4 (human) (UniProt P54764); Kd is the recorded read-out.
Sequence (P54764 whole entry, looked up): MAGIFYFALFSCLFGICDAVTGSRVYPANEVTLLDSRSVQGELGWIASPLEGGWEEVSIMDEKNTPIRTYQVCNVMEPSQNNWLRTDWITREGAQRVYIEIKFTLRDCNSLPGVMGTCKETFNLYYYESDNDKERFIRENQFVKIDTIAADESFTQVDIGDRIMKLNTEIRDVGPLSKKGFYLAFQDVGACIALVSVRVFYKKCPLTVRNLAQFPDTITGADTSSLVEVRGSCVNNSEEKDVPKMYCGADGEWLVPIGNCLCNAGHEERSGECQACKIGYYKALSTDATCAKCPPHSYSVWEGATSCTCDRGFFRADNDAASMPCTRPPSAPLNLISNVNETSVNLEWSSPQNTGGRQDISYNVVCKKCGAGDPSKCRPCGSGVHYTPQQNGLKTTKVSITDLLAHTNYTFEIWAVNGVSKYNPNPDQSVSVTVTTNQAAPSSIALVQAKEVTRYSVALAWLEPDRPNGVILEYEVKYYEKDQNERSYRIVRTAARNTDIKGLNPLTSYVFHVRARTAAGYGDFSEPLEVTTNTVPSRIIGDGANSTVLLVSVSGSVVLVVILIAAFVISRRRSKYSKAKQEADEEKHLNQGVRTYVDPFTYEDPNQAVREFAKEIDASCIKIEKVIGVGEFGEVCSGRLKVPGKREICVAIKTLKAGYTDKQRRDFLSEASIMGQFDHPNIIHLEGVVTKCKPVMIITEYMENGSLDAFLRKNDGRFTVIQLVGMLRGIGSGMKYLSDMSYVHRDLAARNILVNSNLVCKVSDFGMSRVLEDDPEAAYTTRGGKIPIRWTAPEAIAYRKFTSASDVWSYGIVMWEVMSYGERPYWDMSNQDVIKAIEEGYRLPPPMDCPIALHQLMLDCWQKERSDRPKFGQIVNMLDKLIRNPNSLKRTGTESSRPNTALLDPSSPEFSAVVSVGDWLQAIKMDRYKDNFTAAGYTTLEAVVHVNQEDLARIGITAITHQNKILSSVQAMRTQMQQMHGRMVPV

# count of solved cases: 2
| COMPOUND_STRUCTURE | Kd |
| --- | --- |
| CCOc1cc2ncc(C#N)c(Nc3ccc(F)c(Cl)c3)c2cc1NC(=O)/C=C/CN(C)C | > 10 µM |
| O=C1c2ccccc2-c2n[nH]c3cccc1c23 | > 10 µM |

Here is another compound to look at.
stdin: Need Kd of Oc1ccc(-c2nc(-c3ccc(F)cc3)c(-c3ccncc3)[nH]2)cc1 , thanks.
stdout: > 10 µM

---

These compounds were tested on CAMK2G (human); pKd is the recorded read-out.
pKd: −log10 of the molar value.

| COMPOUND_STRUCTURE | pKd |
| --- | --- |
| CCOc1cc2ncc(C#N)c(Nc3ccc(F)c(Cl)c3)c2cc1NC(=O)/C=C/CN(C)C | < 5.00 |

Here is another compound to look at.
stdin: Need pKd of Oc1ccc(-c2nc(-c3ccc(F)cc3)c(-c3ccncc3)[nH]2)cc1 , thanks.
stdout: < 5.00

---

# TARGET: SLK (human) (UniProt Q9H2G2)
pKd: −log10 of the molar value.
MEASURED_ATTRIBUTE: pKd

stdin: Need pKd of Oc1ccc(-c2nc(-c3ccc(F)cc3)c(-c3ccncc3)[nH]2)cc1 , thanks.
stdout: < 5.00

---

# TARGET: UniProtKB P11362
# Sequence (P11362 whole entry, looked up): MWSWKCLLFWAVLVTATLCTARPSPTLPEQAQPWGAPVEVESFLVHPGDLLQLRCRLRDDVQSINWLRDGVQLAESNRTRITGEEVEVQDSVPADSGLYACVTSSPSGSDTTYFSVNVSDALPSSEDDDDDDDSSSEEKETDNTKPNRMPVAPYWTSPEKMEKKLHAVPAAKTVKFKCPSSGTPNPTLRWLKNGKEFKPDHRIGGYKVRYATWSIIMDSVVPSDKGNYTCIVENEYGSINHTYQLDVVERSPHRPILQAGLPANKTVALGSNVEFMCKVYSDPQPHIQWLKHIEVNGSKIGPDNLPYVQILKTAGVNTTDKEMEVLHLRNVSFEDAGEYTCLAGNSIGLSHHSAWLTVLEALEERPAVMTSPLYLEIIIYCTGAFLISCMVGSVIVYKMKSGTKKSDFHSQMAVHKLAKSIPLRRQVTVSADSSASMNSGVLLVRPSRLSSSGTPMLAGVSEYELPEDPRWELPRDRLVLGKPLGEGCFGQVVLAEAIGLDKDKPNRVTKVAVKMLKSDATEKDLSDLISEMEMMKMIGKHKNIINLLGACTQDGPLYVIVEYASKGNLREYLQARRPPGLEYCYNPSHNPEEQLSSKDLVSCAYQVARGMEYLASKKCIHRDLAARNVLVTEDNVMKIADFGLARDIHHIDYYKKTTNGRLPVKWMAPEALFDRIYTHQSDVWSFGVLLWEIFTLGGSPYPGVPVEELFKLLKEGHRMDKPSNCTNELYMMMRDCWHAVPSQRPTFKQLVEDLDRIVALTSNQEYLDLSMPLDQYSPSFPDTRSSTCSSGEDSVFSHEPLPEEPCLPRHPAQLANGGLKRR
Listing: Kd of selected compounds

| COMPOUND_STRUCTURE | Kd |
| --- | --- |
| O=C1c2ccccc2-c2n[nH]c3cccc1c23 | > 10 µM |

stdin: Need Kd of CCOc1cc2ncc(C#N)c(Nc3ccc(F)c(Cl)c3)c2cc1NC(=O)/C=C/CN(C)C , thanks.
stdout: > 10 µM

stdin: Also need Oc1ccc(-c2nc(-c3ccc(F)cc3)c(-c3ccncc3)[nH]2)cc1 , thanks.
stdout: > 10 µM

---

Listing: pKd of selected compounds
# TARGET: PLK4 (human) (UniProt O00444)
# Sequence (O00444 whole entry, looked up): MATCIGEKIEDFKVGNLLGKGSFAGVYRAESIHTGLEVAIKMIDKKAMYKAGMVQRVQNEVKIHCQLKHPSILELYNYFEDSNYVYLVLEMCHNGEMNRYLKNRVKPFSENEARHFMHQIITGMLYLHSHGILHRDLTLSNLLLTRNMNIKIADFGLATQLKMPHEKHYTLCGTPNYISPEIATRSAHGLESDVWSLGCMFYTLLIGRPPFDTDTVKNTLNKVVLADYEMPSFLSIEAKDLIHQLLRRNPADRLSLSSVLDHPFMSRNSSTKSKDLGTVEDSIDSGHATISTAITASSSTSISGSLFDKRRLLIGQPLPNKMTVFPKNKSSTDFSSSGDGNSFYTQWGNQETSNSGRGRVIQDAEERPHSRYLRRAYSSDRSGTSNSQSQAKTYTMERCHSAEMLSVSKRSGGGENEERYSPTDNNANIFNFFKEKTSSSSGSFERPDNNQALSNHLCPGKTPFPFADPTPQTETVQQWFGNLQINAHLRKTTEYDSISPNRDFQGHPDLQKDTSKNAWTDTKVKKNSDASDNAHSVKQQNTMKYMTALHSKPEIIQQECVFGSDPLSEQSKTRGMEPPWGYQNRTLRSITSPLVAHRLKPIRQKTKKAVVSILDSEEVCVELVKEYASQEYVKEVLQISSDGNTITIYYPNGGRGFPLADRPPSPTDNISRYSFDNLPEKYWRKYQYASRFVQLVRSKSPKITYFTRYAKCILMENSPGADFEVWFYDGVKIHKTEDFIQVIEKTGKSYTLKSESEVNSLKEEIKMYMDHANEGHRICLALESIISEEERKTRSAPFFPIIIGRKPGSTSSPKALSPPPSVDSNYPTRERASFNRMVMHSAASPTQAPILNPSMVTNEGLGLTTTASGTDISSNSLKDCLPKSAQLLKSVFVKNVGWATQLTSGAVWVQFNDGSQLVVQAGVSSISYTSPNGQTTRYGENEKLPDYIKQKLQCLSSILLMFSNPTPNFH
pKd: −log10 of the molar value.

| COMPOUND_STRUCTURE | pKd |
| --- | --- |
| Oc1ccc(-c2nc(-c3ccc(F)cc3)c(-c3ccncc3)[nH]2)cc1 | < 5.00 |

Here is another compound to look at.
stdin: Need pKd of CCOc1cc2ncc(C#N)c(Nc3ccc(F)c(Cl)c3)c2cc1NC(=O)/C=C/CN(C)C , thanks.
stdout: < 5.00

---

# TARGET: ABL1 (human), P00519 [M351T]
# ASSAY_METHOD_TEXT: KINOMEscan competition binding
Listing: Kd of selected molecules

| COMPOUND_STRUCTURE | VALUE |
| --- | --- |
| Oc1ccc(-c2nc(-c3ccc(F)cc3)c(-c3ccncc3)[nH]2)cc1 | > 10 µM |

stdin: Need Kd of O=C1c2ccccc2-c2n[nH]c3cccc1c23 , thanks.
stdout: > 10 µM

---

Listing: Kd of selected compounds
# TARGET: SRC (human)

| COMPOUND_STRUCTURE | Kd |
| --- | --- |
| O=C1c2ccccc2-c2n[nH]c3cccc1c23 | > 10 µM |

Here is another compound to look at.
stdin: Fill in the recorded Kd for this compound, with SRC (human) as test system: Oc1ccc(-c2nc(-c3ccc(F)cc3)c(-c3ccncc3)[nH]2)cc1
stdout: > 10 µM

---

pKd: −log10 of the molar value.
These compounds were tested on NEK6 (human); pKd is the recorded read-out.

| COMPOUND_STRUCTURE | TARGET | pKd |
| --- | --- | --- |
| Oc1ccc(-c2nc(-c3ccc(F)cc3)c(-c3ccncc3)[nH]2)cc1 | NEK6 (human) | < 5.00 |

Here is another compound to look at.
stdin: Need pKd of CCOc1cc2ncc(C#N)c(Nc3ccc(F)c(Cl)c3)c2cc1NC(=O)/C=C/CN(C)C , thanks.
stdout: < 5.00

---

Listing: pKd of selected compounds
# TARGET: FGFR3 (human)
# ASSAY_METHOD_TEXT: KINOMEscan competition binding
pKd: −log10 of the molar value.

# count of solved cases: 2
| COMPOUND_STRUCTURE | VALUE |
| --- | --- |
| O=C1c2ccccc2-c2n[nH]c3cccc1c23 | < 5.00 |
| CCOc1cc2ncc(C#N)c(Nc3ccc(F)c(Cl)c3)c2cc1NC(=O)/C=C/CN(C)C | < 5.00 |

Here is another compound to look at.
stdin: Need pKd of Oc1ccc(-c2nc(-c3ccc(F)cc3)c(-c3ccncc3)[nH]2)cc1 , thanks.
stdout: < 5.00

---

These compounds were tested on FGR (human); Kd is the recorded read-out.

stdin: Need Kd of Oc1ccc(-c2nc(-c3ccc(F)cc3)c(-c3ccncc3)[nH]2)cc1 , thanks.
stdout: > 10 µM

stdin: Also need CCOc1cc2ncc(C#N)c(Nc3ccc(F)c(Cl)c3)c2cc1NC(=O)/C=C/CN(C)C , thanks.
stdout: > 10 µM

---

Listing: pKd of selected compounds
# TARGET: ERBB2 (human)
pKd: −log10 of the molar value.

| COMPOUND_STRUCTURE | VALUE |
| --- | --- |
| O=C1c2ccccc2-c2n[nH]c3cccc1c23 | < 5.00 |

Here is another compound to look at.
stdin: Need pKd of Oc1ccc(-c2nc(-c3ccc(F)cc3)c(-c3ccncc3)[nH]2)cc1 , thanks.
stdout: < 5.00

---

# TARGET: FER (human)
MEASURED_ATTRIBUTE: Kd

stdin: Need Kd of Oc1ccc(-c2nc(-c3ccc(F)cc3)c(-c3ccncc3)[nH]2)cc1 , thanks.
stdout: > 10 µM

---

# TARGET: HCK (human) (UniProt P08631)
# Sequence (P08631 whole entry, looked up): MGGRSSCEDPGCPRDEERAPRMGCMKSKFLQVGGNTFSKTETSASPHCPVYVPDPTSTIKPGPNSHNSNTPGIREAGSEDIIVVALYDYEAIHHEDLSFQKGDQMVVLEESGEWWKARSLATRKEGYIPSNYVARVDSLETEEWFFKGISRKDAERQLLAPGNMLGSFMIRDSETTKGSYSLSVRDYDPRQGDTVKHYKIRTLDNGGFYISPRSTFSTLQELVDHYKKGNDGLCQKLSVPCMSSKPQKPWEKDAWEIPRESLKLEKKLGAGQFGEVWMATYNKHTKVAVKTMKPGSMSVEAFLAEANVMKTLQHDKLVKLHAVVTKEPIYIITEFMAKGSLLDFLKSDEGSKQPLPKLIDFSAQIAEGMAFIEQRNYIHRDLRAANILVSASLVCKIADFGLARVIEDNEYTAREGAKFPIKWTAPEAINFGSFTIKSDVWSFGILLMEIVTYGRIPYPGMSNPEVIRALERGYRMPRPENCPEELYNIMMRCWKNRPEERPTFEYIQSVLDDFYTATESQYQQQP
# ASSAY_METHOD_TEXT: KINOMEscan competition binding
pKd: −log10 of the molar value.
Listing: pKd of selected compounds

| COMPOUND_STRUCTURE | VALUE |
| --- | --- |
| O=C1c2ccccc2-c2n[nH]c3cccc1c23 | < 5.00 |

Here is another compound to look at.
stdin: Need pKd of Oc1ccc(-c2nc(-c3ccc(F)cc3)c(-c3ccncc3)[nH]2)cc1 , thanks.
stdout: < 5.00

---

# TARGET: BMP2K (human)
MEASURED_ATTRIBUTE: Kd

stdin: Need Kd of Oc1ccc(-c2nc(-c3ccc(F)cc3)c(-c3ccncc3)[nH]2)cc1 , thanks.
stdout: > 10 µM

---

pKd: −log10 of the molar value.
These compounds were tested on PRKACA (human) (UniProt P17612); pKd is the recorded read-out.

# count of solved cases: 2
| COMPOUND_STRUCTURE | TARGET | MEASURED_ATTRIBUTE | VALUE |
| --- | --- | --- | --- |
| Oc1ccc(-c2nc(-c3ccc(F)cc3)c(-c3ccncc3)[nH]2)cc1 | PRKACA (human) (UniProt P17612) | pKd | < 5.00 |
| O=C1c2ccccc2-c2n[nH]c3cccc1c23 | PRKACA (human) (UniProt P17612) | pKd | < 5.00 |

stdin: Need pKd of CCOc1cc2ncc(C#N)c(Nc3ccc(F)c(Cl)c3)c2cc1NC(=O)/C=C/CN(C)C , thanks.
stdout: < 5.00

---

# TARGET: DAPK2 (human) (UniProt Q9UIK4)
# Sequence (Q9UIK4 whole entry, looked up): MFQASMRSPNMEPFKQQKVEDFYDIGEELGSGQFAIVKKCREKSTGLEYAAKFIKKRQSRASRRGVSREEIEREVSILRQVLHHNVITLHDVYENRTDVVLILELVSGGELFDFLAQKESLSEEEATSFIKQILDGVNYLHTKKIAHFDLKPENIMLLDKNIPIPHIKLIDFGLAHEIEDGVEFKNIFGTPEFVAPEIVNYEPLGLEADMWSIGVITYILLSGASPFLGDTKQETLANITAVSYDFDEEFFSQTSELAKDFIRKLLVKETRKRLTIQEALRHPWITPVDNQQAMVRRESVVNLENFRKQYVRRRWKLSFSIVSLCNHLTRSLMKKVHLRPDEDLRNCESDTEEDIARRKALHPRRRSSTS
MEASURED_ATTRIBUTE: Kd

| COMPOUND_STRUCTURE | VALUE |
| --- | --- |
| CCOc1cc2ncc(C#N)c(Nc3ccc(F)c(Cl)c3)c2cc1NC(=O)/C=C/CN(C)C | > 10 µM |

Here is another molecule to look at.
stdin: Need Kd of Oc1ccc(-c2nc(-c3ccc(F)cc3)c(-c3ccncc3)[nH]2)cc1 , thanks.
stdout: > 10 µM

---

# TARGET: STK17A (human) (UniProt Q9UEE5)
# Sequence (Q9UEE5 whole entry, looked up): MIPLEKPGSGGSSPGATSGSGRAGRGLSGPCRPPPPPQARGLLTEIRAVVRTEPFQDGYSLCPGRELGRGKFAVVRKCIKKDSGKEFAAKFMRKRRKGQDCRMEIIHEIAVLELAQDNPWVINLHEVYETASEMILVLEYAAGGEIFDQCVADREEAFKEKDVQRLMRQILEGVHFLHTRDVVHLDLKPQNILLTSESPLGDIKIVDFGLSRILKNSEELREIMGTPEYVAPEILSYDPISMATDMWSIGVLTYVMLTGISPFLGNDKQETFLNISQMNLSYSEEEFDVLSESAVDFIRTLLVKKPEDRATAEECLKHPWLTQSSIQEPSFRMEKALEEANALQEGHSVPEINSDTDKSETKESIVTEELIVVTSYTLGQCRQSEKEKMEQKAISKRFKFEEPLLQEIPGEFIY
pKd: −log10 of the molar value.
MEASURED_ATTRIBUTE: pKd

stdin: Need pKd of Oc1ccc(-c2nc(-c3ccc(F)cc3)c(-c3ccncc3)[nH]2)cc1 , thanks.
stdout: < 5.00

---

# TARGET: PIM1 (human)
pKd: −log10 of the molar value.
Listing: pKd of selected compounds

# count of solved cases: 2
| COMPOUND_STRUCTURE | pKd |
| --- | --- |
| Oc1ccc(-c2nc(-c3ccc(F)cc3)c(-c3ccncc3)[nH]2)cc1 | < 5.00 |
| CCOc1cc2ncc(C#N)c(Nc3ccc(F)c(Cl)c3)c2cc1NC(=O)/C=C/CN(C)C | < 5.00 |

Here is another compound to look at.
stdin: Need pKd of O=C1c2ccccc2-c2n[nH]c3cccc1c23 , thanks.
stdout: < 5.00

---

These compounds were tested on INSR (human); Kd is the recorded read-out.

# count of solved cases: 2
| COMPOUND_STRUCTURE | VALUE |
| --- | --- |
| O=C1c2ccccc2-c2n[nH]c3cccc1c23 | > 10 µM |
| Oc1ccc(-c2nc(-c3ccc(F)cc3)c(-c3ccncc3)[nH]2)cc1 | > 10 µM |

Here is another compound to look at.
stdin: Need Kd of CCOc1cc2ncc(C#N)c(Nc3ccc(F)c(Cl)c3)c2cc1NC(=O)/C=C/CN(C)C , thanks.
stdout: > 10 µM
